Read-out: Macrophage colony-stimulating factor (MCSF), CSF1 (gene 1435)
assayName: BSK_hDFCGF_MCSF: BioMAP Diversity Plus: hDFCGF Assay for Macrophage colony-stimulating factor (MCSF) Biomarker Activity (AID 2283060)
conditionNotes: primary human foreskin fibroblasts, actives raise or lower the signal unless noted
Activity calls are given as the source filed them. How the source made its calls: active means hit-call score of the fitted dose curve at least 0.9, where 1 is the maximum; inactive means score below 0.9.
Write down one outcome, taken from True = active, False = inactive

Consider the following illustrative entries.
[
  {
    "compound": "CCC(C)=NO",
    "categoryLabel": "False"
  },
  {
    "compound": "CCC[Si](OC(C)=O)(OC(C)=O)OC(C)=O",
    "categoryLabel": "False"
  },
  {
    "compound": "CCCCCCCCCCCCCCCCCC[N+](C)(C)C",
    "categoryLabel": "True"
  },
  {
    "compound": "CC(C)CC(=O)CC(C)CC(C)C (configuration not stated)",
    "categoryLabel": "False"
  },
  {
    "compound": "CC[N+](CC)(CC(=O)Nc1c(C)cccc1C)Cc1ccccc1",
    "categoryLabel": "False"
  }
]

So what was the verdict on CC(C)C1OCCN1CCOC(=O)NCCCCCCNC(=O)OCCN1CCOC1C(C)C (configuration not stated) in this test?
False

So what was the verdict on Oc1cccc2ccccc12 in this test?
False

====

studyTarget: Cellular tumor antigen p53 (Homo sapiens) (UniProt P04637)
Sequence (P04637 whole entry, looked up): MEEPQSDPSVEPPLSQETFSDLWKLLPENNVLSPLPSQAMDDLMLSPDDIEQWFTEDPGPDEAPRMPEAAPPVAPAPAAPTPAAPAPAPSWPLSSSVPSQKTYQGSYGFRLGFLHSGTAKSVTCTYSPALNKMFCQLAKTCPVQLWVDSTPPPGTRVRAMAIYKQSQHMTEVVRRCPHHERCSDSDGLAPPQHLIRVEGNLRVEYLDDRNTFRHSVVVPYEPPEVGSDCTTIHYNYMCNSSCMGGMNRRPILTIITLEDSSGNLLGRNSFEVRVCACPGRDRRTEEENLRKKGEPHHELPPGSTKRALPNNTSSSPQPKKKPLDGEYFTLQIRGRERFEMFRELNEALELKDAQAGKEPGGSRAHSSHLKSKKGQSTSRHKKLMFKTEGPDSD
assayName: TOX21_p53_BLA_p4_ratio: Tox21 HCT-116 p53 Agonism Beta-lactamase Assay, Ratio, Phase 4 (AID 2283601)
Results filed as inconclusive are left out. The source made the active and inactive calls. The calls were made as follows: active = hit-call score of the fitted dose curve at least 0.9, where 1 is the maximum; inconclusive = response in the unintended direction; inactive = score below 0.9.
Write down one outcome, taken from YES = active, NO = inactive

[
  {
    "compound": "O=C(c1ccccc1)c1ccc2n1CCC2C(=O)O (stereo not given)",
    "categoryLabel": "YES"
  }
]

So what was the verdict on CCN1CCC[C@H]1CNC(=O)c1cc(S(N)(=O)=O)ccc1OC in this test?
NO

So what was the verdict on CC(C)(C)NC[C@H](O)COc1nsnc1N1CCOCC1 in this test?
NO

So what was the verdict on CC(=C(CCOP(=O)(O)O)SC(=O)c1ccccc1)N(C=O)Cc1cnc(C)nc1N in this test?
NO

So what was the verdict on CC(C)CCC[C@@H](C)[C@H]1CC[C@H]2[C@@H]3CC=C4C[C@@H](O)CC[C@]4(C)[C@H]3CC[C@]12C in this test?
NO

So what was the verdict on Nc1c2c(nc3ccccc13)CCCC2 in this test?
NO

So what was the verdict on CCCOc1ccc2nc(NC(=O)OC)sc2c1 in this test?
YES

So what was the verdict on c1ccc2sc(SSc3nc4ccccc4s3)nc2c1 in this test?
NO

So what was the verdict on O=c1cccccc1O in this test?
NO

So what was the verdict on CCc1nn(CCCN2CCN(c3cccc(Cl)c3)CC2)c(=O)n1CCOc1ccccc1 in this test?
NO

So what was the verdict on CN(C(=O)c1c(O)c2ccccc2n(C)c1=O)c1ccccc1 in this test?
NO

So what was the verdict on CCCCCCCN in this test?
NO

So what was the verdict on CC(C)NCC1CCc2cc(CO)c([N+](=O)[O-])cc2N1 (stereo not given) in this test?
NO

So what was the verdict on CCc1oc2ccccc2c1C(=O)c1cc(I)c(O)c(I)c1 in this test?
YES

So what was the verdict on N=C1N=C(N)c2cc3ccccc3cc21 in this test?
YES

So what was the verdict on C[C@@H](O[C@H]1OCCN(Cc2n[nH]c(=O)[nH]2)[C@H]1c1ccc(F)cc1)c1cc(C(F)(F)F)cc(C(F)(F)F)c1 in this test?
YES

So what was the verdict on CC(C)NCC(O)c1ccc2ccccc2c1 (stereo not given) in this test?
NO

So what was the verdict on O=C1C(=O)c2ccccc2C(O)=C1C1CCC(c2ccc(Cl)cc2)CC1 (stereo not given) in this test?
NO

So what was the verdict on CN(C1CCCCC1)S(=O)(=O)c1ccccc1N in this test?
NO

So what was the verdict on Cc1cc2nc3c(=O)[nH]c(=O)nc-3n(C[C@H](O)[C@H](O)[C@H](O)CO)c2cc1C in this test?
NO

====

studyTarget: human Phosphodiesterase 10 (PDE10), PDE10A (gene 10846)
assayName: NVS_ENZ_hPDE10: NovaScreen (NVS) Enzymatic Assay for human Phosphodiesterase 10 (PDE10) (AID 2283195)
Results filed as inconclusive are left out. The source made the active and inactive calls. How the source made its calls: active means hit-call score of the fitted dose curve at least 0.9, where 1 is the maximum; inconclusive means response in the unintended direction; inactive means score below 0.9.
Write down one outcome, taken from active, inactive

Consider the following illustrative entries.
[
  {
    "compound": "CC(C)CC(=O)O",
    "categoryLabel": "inactive"
  },
  {
    "compound": "COc1ccccc1OCC(O)CO (centres undefined)",
    "categoryLabel": "active"
  }
]

So what was the verdict on CCCOCCC in this test?
inactive

So what was the verdict on CCC(C)NC(N)=O (centres undefined) in this test?
inactive

So what was the verdict on CC(=O)CCc1ccccc1 in this test?
inactive

So what was the verdict on C[N+](C)(C)CC(=O)[O-] in this test?
inactive

So what was the verdict on CCCCCCCCCCCCCCCCCC[N+](C)(C)C in this test?
active

So what was the verdict on CCCCCC1CCCC(=O)O1 (centres undefined) in this test?
inactive

So what was the verdict on COC(=O)/C=C\C(=O)OC in this test?
inactive

====

assayName: CCTE_Mundy_HCI_Cortical_Synap_Neur_Matur_NeuriteCount: CCTE's Synaptogenesis and Neurite Maturation Assay in rat cortical cells for Neurite Count, Mundy Lab (AID 2284222)
The source made the active and inactive calls. How the source made its calls: active means hit-call score of the fitted dose curve at least 0.9, where 1 is the maximum; inactive means score below 0.9.

[
  {
    "molecule": "CN(C)CCC(c1ccc(Cl)cc1)c1ccccn1 (centres undefined)",
    "AC50": "inactive"
  },
  {
    "molecule": "NC(N)=Nc1nc(CSCCC(N)=NS(N)(=O)=O)cs1",
    "AC50": "inactive"
  },
  {
    "molecule": "CC1(C)S[C@@H]2[C@H](NC(=O)[C@H](N)c3ccccc3)C(=O)N2[C@H]1C(=O)O",
    "AC50": "inactive"
  },
  {
    "molecule": "Cc1c(O)cccc1C(=O)N[C@@H](CSc1ccccc1)[C@H](O)CN1C[C@H]2CCCC[C@H]2C[C@H]1C(=O)NC(C)(C)C",
    "AC50": "5.46 µM (active)"
  }
]

====

assayName: TOX21_p53_BLA_p3_viability: Viability Assessment in the Tox21 HCT-116 p53 Agonism Beta-lactamase Assay, Phase 3 (AID 2283593);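 further: cells exposed to compound for 16 h before reading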
Results filed as inconclusive are left out. Calls of active or inactive are those of the source. The calls were made as follows: active = hit-call score of the fitted dose curve at least 0.9, where 1 is the maximum; inconclusive = response in the unintended direction; inactive = score below 0.9.
observedProperty: AC50

Guide cases for AC50, answers given:
[
  {
    "sampleSmiles": "c1ccc(C(O[C@H]2CCCN(CCc3ccc4c(c3)OCO4)C2)c2ccccc2)cc1",
    "result": "inactive"
  },
  {
    "sampleSmiles": "O=C1c2c(O)ccc([N+](=O)[O-])c2C(=O)c2c([N+](=O)[O-])ccc(O)c21",
    "result": "9.74 µM (active)"
  },
  {
    "sampleSmiles": "O=C(O)CCCCCC(=O)O",
    "result": "inactive"
  },
  {
    "sampleSmiles": "O=C(O)COc1ccc(C(=O)c2cccs2)c(Cl)c1Cl",
    "result": "inactive"
  },
  {
    "sampleSmiles": "CCOC(=O)[C@H](CCc1ccccc1)N[C@@H](C)C(=O)N1CCC[C@H]1C(=O)O",
    "result": "inactive"
  }
]

Could you tell me which AC50 is on file for CNC(=O)CN(CCN(CCN(CC(=O)[O-])CC(=O)NC)CC(=O)[O-])CC(=O)[O-].O.[Gd+3] ?
inactive

Could you tell me which AC50 is on file for c1ccc(OCc2ccc(CCCN3CCOCC3)cc2)cc1 ?
inactive

Could you tell me which AC50 is on file for COC1=C(OC)C(=O)C(C/C=C(\C)CC/C=C(\C)CC/C=C(\C)CC/C=C(\C)CC/C=C(\C)CC/C=C(\C)CC/C=C(\C)CC/C=C(\C)CC/C=C(\C)CCC=C(C)C)=C(C)C1=O ?
inactive

Could you tell me which AC50 is on file for C=C1CC[C@H](O)C/C1=C/C=C1\CCC[C@]2(C)[C@@H]([C@H](C)CCCC(C)(C)O)CC[C@@H]12 ?
13.7 µM (active)

====

studyTarget: Cellular tumor antigen p53 (Homo sapiens)
assayName: TOX21_p53_BLA_p2_ratio: Tox21 HCT-116 p53 Agonism Beta-lactamase Assay, Ratio, Phase 2 (AID 2283592)
Records with an inconclusive call do not appear. The source made the active and inactive calls. The calls were made as follows: active = hit-call score of the fitted dose curve at least 0.9, where 1 is the maximum; inconclusive = response in the unintended direction; inactive = score below 0.9.
Write down one outcome, taken from active, inactive

Consider the following illustrative entries.
[
  {
    "molecule": "N=C(N)c1ccc2cc(OC(=O)c3ccc(N=C(N)N)cc3)ccc2c1",
    "categoryLabel": "inactive"
  },
  {
    "molecule": "N[C@@H](CSSC[C@H](N)C(=O)O)C(=O)O",
    "categoryLabel": "inactive"
  },
  {
    "molecule": "CC[C@H](C)[C@H](N)C(=O)O",
    "categoryLabel": "inactive"
  },
  {
    "molecule": "CO[C@H]1/C=C/O[C@@]2(C)Oc3c(C)c(O)c4c(O)c(c(/C=N/N5CCN(C6CCCC6)CC5)c(O)c4c3C2=O)NC(=O)/C(C)=C\\C=C\\[C@H](C)[C@H](O)[C@@H](C)[C@@H](O)[C@@H](C)[C@H](OC(C)=O)[C@@H]1C",
    "categoryLabel": "active"
  },
  {
    "molecule": "CCCCCCCCOc1ccc(C(=O)O)cc1",
    "categoryLabel": "inactive"
  },
  {
    "molecule": "COc1cc(C)nc(-n2nc(C)cc2OC)n1",
    "categoryLabel": "inactive"
  },
  {
    "molecule": "CCCCCCCCCCCCSC#N",
    "categoryLabel": "inactive"
  },
  {
    "molecule": "CCC(N)(CO)CO",
    "categoryLabel": "inactive"
  }
]

So what was the verdict on COc1ccccc1OCC(O)COC(N)=O (stereo unspecified) in this test?
inactive

So what was the verdict on CCO in this test?
inactive

So what was the verdict on CC(C)(C)C(=O)O in this test?
inactive

So what was the verdict on NC(N)=Nc1nc(CSCCC(N)=NS(N)(=O)=O)cs1 in this test?
inactive

So what was the verdict on Cc1cnc(C(=O)NCCc2ccc(S(=O)(=O)NC(=O)NC3CCCCC3)cc2)cn1 in this test?
inactive
